target: Coagulation factor VII/tissue factor (Homo sapiens) (UniProt P08709+P13726); test: Selectivity for F7a/TF over trypsin; type: protein-complex assay
Attribute: Ratio Ki
Please reply with the value in numeric form only.

Some solved entries appear below for comparison.
{"compound": "O=C(NCc1cccc(-c2cccc(-c3cc4c[nH]ccc-4n3)c2O)c1)Nc1ccccc1", "target_under_test": "Coagulation factor VII/tissue factor (Homo sapiens) (UniProt P08709+P13726)", "Ratio Ki": 2030}
{"compound": "O=C(Cc1c(F)cccc1F)NCc1cccc(-c2cccc(-c3cc4c[nH]ccc-4n3)c2O)c1", "target_under_test": "Coagulation factor VII/tissue factor (Homo sapiens) (UniProt P08709+P13726)", "Ratio Ki": 16}
{"compound": "COc1cccc(NC(=O)NCc2cccc(-c3cccc(-c4cc5c[nH]ccc-5n4)c3O)c2)c1", "target_under_test": "Coagulation factor VII/tissue factor (Homo sapiens) (UniProt P08709+P13726)", "Ratio Ki": 1500}
{"compound": "O=C(NCc1cccc(-c2cccc(-c3cc4c[nH]ccc-4n3)c2O)c1)Nc1ccsc1", "target_under_test": "Coagulation factor VII/tissue factor (Homo sapiens) (UniProt P08709+P13726)", "Ratio Ki": 1150}
{"compound": "O=C(NCc1cccc(-c2cccc(-c3cc4c[nH]ccc-4n3)c2O)c1)C(CO)c1cccnc1 (centres undefined)", "target_under_test": "Coagulation factor VII/tissue factor (Homo sapiens) (UniProt P08709+P13726)", "Ratio Ki": 34}
{"compound": "O=C(NCCc1cccs1)NCc1cccc(-c2cccc(-c3cc4c[nH]ccc-4n3)c2O)c1", "target_under_test": "Coagulation factor VII/tissue factor (Homo sapiens) (UniProt P08709+P13726)", "Ratio Ki": 120}
{"compound": "COc1ccc(NC(=O)NCc2cccc(-c3cccc(-c4cc5c[nH]ccc-5n4)c3O)c2)c(OC)c1", "target_under_test": "Coagulation factor VII/tissue factor (Homo sapiens) (UniProt P08709+P13726)", "Ratio Ki": 5000}
{"compound": "O=C(NCCc1ccccc1)NCc1cccc(-c2cccc(-c3cc4c[nH]ccc-4n3)c2O)c1", "target_under_test": "Coagulation factor VII/tissue factor (Homo sapiens) (UniProt P08709+P13726)", "Ratio Ki": 96}

# Ratio Ki of O=C(NCc1cccc(-c2cccc(-c3cc4c[nH]ccc-4n3)c2O)c1)Nc1ccc(F)cc1F = 1500
